Molecular target: FLT3 (Homo sapiens, UniProt P36888)
Sequence (P36888 27-993): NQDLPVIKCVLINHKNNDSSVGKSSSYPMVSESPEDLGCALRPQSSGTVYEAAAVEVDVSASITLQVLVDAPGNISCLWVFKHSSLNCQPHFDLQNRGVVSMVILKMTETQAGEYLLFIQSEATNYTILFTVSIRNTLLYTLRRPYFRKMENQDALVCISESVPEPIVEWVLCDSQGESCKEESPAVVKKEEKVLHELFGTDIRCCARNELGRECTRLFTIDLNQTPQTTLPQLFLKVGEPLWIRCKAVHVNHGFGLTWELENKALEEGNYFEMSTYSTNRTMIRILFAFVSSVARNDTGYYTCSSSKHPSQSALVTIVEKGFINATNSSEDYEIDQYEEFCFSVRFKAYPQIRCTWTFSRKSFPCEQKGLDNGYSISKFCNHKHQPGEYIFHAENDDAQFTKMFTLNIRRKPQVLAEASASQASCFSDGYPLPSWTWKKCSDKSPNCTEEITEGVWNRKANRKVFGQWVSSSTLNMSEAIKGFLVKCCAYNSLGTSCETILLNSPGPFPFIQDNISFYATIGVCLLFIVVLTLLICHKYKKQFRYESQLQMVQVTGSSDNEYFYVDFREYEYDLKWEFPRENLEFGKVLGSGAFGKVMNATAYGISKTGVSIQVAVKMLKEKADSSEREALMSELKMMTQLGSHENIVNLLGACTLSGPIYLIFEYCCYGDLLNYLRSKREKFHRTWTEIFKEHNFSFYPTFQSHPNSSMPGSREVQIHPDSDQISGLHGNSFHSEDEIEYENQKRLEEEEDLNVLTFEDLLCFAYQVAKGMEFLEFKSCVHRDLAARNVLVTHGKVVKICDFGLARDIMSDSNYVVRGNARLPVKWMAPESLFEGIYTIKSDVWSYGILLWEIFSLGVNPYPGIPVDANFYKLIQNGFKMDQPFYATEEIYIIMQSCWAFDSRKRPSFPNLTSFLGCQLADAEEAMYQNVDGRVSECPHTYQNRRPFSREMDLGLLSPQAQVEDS
pIC50: −log10 of the molar value.
PROPERTY MEASURED: pIC50

>>> df
                                   molecule  rel  assay_result
0  CC(C)(C)c1ccc(C(=O)Nc2cc(-c3ccccc3)n[nH]2)cc1 [Compound 3i-1247]    =          8.82
1  COc1ccc(-c2cc(NC(=O)c3ccc(C(C)(C)C)cc3)[nH]n2)cc1 [Compound 3i-1103]    >          6.00
2  Cc1cc(-c2cc(NC(=O)c3ccc(C(C)(C)C)cc3)[nH]n2)ccn1 [Compound 3i-1246]    =          7.74
